Every entry's value here was drawn from PubChem BioAssay (NCATS).

# Experimental Details: qHTS Assay for Lipid Storage Modulators (AID 1519); note: % is set by controls: 0 for no effect and ±100 for the full control effect
# Conditions Used: Drosophila S3 cells, BODIPY lipid droplet/cell ratio, laser cytometry; at 57.5 µM (top of the series); cells loaded with oleic acid
Results filed as inconclusive are left out.
Catalogue of compounds with associated activity change, negative = inhibition
Quantity: activity change, negative = inhibition (%)

Structure Notation: c1cncc(-c2nccc(-n3ccnc3)n2)c1
Quantity: activity change, negative = inhibition
Quantitative Readout: 7.22
--
Structure Notation: COc1ccccc1CN1CCCC2(CCN(C(C)=O)CC2)C1
Quantity: activity change, negative = inhibition
Quantitative Readout: 0.567
--
Structure Notation: CCCCCCCCCCCCCC(=O)O[C@H](CC(=O)O)C[N+](C)(C)C
Quantity: activity change, negative = inhibition
Quantitative Readout: 3.49
--
Structure Notation: Cc1occc(=O)c1O
Quantity: activity change, negative = inhibition
Quantitative Readout: 8.81
--
Structure Notation: C[C@@H](Oc1ccc(Oc2cnc3ccc(Cl)cc3n2)cc1)C(=O)O
Quantity: activity change, negative = inhibition
Quantitative Readout: -0.184
--
Structure Notation: Cn1cccc1C(=O)N1CCC2(CC1)CN(c1ccccn1)C2
Quantity: activity change, negative = inhibition
Quantitative Readout: 5.7
--
Structure Notation: N#Cc1ccc(CN2CCC3(CC2)CCN(S(=O)(=O)c2ccccc2)CC3)cc1
Quantity: activity change, negative = inhibition
Quantitative Readout: -0.545
--
Structure Notation: COc1ccc(-c2nc3cnc(N4CCNCC4)nc3n(CCC#N)c2=O)cc1
Quantity: activity change, negative = inhibition
Quantitative Readout: 4.58
--
Structure Notation: CN(C)Cc1ccccc1-c1cncnc1NC1CC1
Quantity: activity change, negative = inhibition
Quantitative Readout: 6.51
--
Structure Notation: O=c1c(-c2ccccc2)coc2cc(O)cc(O)c12
Quantity: activity change, negative = inhibition
Quantitative Readout: 13.9
--
Structure Notation: Cc1nc2cnc(N3CCNCC3)nc2n(C2CC2)c1=O
Quantity: activity change, negative = inhibition
Quantitative Readout: 0.607
--
Structure Notation: FC(F)(F)c1ccccc1-c1ccc2ncnc(NCCN3CCOCC3)c2c1
Quantity: activity change, negative = inhibition
Quantitative Readout: -5.53

---

# Target Under Test: Dual specificity protein kinase CLK4 (Homo sapiens) (UniProt Q9HAZ1)
# Sequence (Q9HAZ1 whole entry, looked up): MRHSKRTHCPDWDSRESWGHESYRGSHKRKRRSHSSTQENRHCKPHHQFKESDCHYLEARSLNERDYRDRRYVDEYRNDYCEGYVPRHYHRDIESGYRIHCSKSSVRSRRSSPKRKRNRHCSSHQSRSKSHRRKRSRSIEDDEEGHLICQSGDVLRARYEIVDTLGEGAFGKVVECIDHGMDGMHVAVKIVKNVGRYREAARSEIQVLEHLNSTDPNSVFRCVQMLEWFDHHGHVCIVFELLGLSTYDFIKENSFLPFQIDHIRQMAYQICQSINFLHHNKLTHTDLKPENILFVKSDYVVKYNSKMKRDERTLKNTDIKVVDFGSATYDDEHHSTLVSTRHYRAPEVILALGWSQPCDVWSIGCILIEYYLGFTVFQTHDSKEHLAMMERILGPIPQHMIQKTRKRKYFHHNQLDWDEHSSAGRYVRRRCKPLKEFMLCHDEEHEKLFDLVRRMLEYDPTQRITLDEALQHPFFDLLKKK
# Experimental Details: qHTS Assay for Inhibitors of CDC-like Kinase 4 (ADP-Glo Assay) (AID 1771); note: nearly all actives have a fitted effect of over 70% in size
# Conditions Used: recombinant CLK4, ADP-Glo luminescence; series mostly up to 80 µM
# Text: NIH Molecular Libraries Probe Production Centers Network [MLPCN] NIH Chemical Genomics Center [NCGC] […] In the assay, the ADP levels were detected using Promega ADP-Glo technology wherein the remaining ATP from the kinase reaction is first depleted with an ATPase reagent followed by a reagent that contains and enzyme which converts the ADP produced to ATP as well as Ultra-Glo luciferase and D-luciferin which generates a bioluminescence signal from the ATP. […]
Results filed as inconclusive are left out. Activity calls are given as the source filed them. Calls come from the whole dose curve; as a rule, active = well fitted inhibition curve with a large enough effect; inconclusive = small, poorly fitted or top-dose-only effect; inactive = flat fitted curve, though single readings scatter.
Classes used: active, inactive

Structure Notation: COc1ccc2[nH]cc(CCNc3cc(-c4ccccc4C)ncn3)c2c1
Assigned Class: active
//
Structure Notation: CCNc1ncc2nc(-c3cc(F)cc(F)c3)c(=O)n(CCc3ccccc3)c2n1
Assigned Class: inactive
//
Structure Notation: Cc1noc(C)c1-c1nc(Nc2ccc(F)cc2)c2ccccc2n1
Assigned Class: inactive
//
Structure Notation: COc1ccccc1-c1cncnc1N1CCN(C)CC1
Assigned Class: inactive
//
Structure Notation: FC(F)(F)c1ccccc1-c1nccc(NCCN2CCOCC2)n1
Assigned Class: inactive
//
Structure Notation: COCCn1c(=O)c(-c2cccs2)nc2cnc(OC)nc21
Assigned Class: inactive
//
Structure Notation: COc1ccccc1-c1ccc2ncnc(NCCNC(C)=O)c2c1
Assigned Class: active
//
Structure Notation: CN(C)Cc1ccccc1-c1nc(NC2CC2)c2ccccc2n1
Assigned Class: inactive
//
Structure Notation: COc1ccccc1-c1nc(N(C)C)c2ccccc2n1
Assigned Class: inactive
//
Structure Notation: CN(C)c1ncc2nc(-c3cccs3)c(=O)n(-c3ccccc3)c2n1
Assigned Class: inactive
//
Structure Notation: Cc1noc(C)c1-c1nccc(NCc2cccs2)n1
Assigned Class: active
//
Structure Notation: CC(=O)NCCNc1ncnc2ccc(-c3ccccc3C)cc12
Assigned Class: active
//
Structure Notation: Cc1ccccc1-c1cc(N2CCNCC2)ncn1
Assigned Class: inactive
//
Structure Notation: Cc1cnc(CNc2cc(-c3ccc(N(C)C)cc3)ncn2)cn1
Assigned Class: active
//
Structure Notation: CN(C)C(=O)c1ccc(-c2cncnc2NCc2ccccc2)cc1
Assigned Class: inactive
//
Structure Notation: O=c1c(-c2cccs2)nc2cncnc2n1Cc1ccc(F)cc1
Assigned Class: inactive
//
Structure Notation: CN(Cc1ccco1)c1cc(-c2cccc(C#N)c2)ncn1
Assigned Class: active
//
Structure Notation: N#Cc1cccc(-c2nccc(-n3ccnc3)n2)c1
Assigned Class: active
//
Structure Notation: CCNc1ncc2nc(-c3ccc(F)cc3)c(=O)n(-c3ccc(OC)cc3)c2n1
Assigned Class: inactive
//
Structure Notation: CN(C)c1ncc2nc(-c3ccc(F)cc3)c(=O)n(CCc3ccccc3)c2n1
Assigned Class: inactive
//
Structure Notation: COc1ncc2ncc(=O)n(C3CC3)c2n1
Assigned Class: inactive
//
Structure Notation: COc1ccccc1-c1nccc(Nc2ccc(F)cc2)n1
Assigned Class: inactive
//
Structure Notation: COCCNc1ncnc2ccc(-c3ccccc3C(F)(F)F)cc12
Assigned Class: active
//
Structure Notation: CN(C)C(=O)c1ccc(-c2cc(NCc3cccs3)ncn2)cc1
Assigned Class: active
